src = patent EP0982027A1

- protocol: in vivo
- Set-up: species or system female C3H/HeN mice
- measurement_conditions: plasma, iv; mouse, 40 mg.kg^-1 i.v.; 24 h after dose; individual animals IV1-IV4; values flagged blq (below limit of accurate quantification, 20 ng.ml^-1); read-out: Plasma product Ic concentration
attribute_measured: concentration at 24 h (ng/mL)

CO[C@H]1C(=O)[C@]2(C)[C@@H](OC)C[C@H]3OC[C@@]3(OC(C)=O)[C@H]2[C@H](OC(=O)c2ccccc2)[C@]2(O)C[C@H](OC(=O)[C@H](O)[C@@H](NC(=O)OC(C)(C)C)c3ccccc3)C(C)=C1C2(C)C    18

###

- protocol: in vivo
- Parameters: species or system female C3H/HeN mice
- measurement_conditions: mouse, plasma, iv, 40 mg/kg, 40 mg.kg^-1 i.v., 4h after dose, MEAN, read-out: Plasma product Ic concentration
attribute_measured: concentration at 4 h (µg/mL)

CO[C@H]1C(=O)[C@]2(C)[C@@H](OC)C[C@H]3OC[C@@]3(OC(C)=O)[C@H]2[C@H](OC(=O)c2ccccc2)[C@]2(O)C[C@H](OC(=O)[C@H](O)[C@@H](NC(=O)OC(C)(C)C)c3ccccc3)C(C)=C1C2(C)C [product Ia]    0.962

###

- protocol: in vivo
- Set-up: species or system female C3H/HeN mice
- measurement_conditions: mouse, brain, iv, 40 mg/kg, 40 mg.kg^-1 i.v., 8h after dose, MEAN, read-out: Brain product Ic concentration
attribute_measured: concentration at 8 h

CO[C@H]1C(=O)[C@]2(C)[C@@H](OC)C[C@H]3OC[C@@]3(OC(C)=O)[C@H]2[C@H](OC(=O)c2ccccc2)[C@]2(O)C[C@H](OC(=O)[C@H](O)[C@@H](NC(=O)OC(C)(C)C)c3ccccc3)C(C)=C1C2(C)C    8250 ng/g

###

- protocol: in vivo
- Design: species or system female C3H/HeN mice
- measurement_conditions: mouse, plasma, iv, 40 mg/kg, 40 mg.kg^-1 i.v., 0.75h after dose, MEAN, read-out: Plasma product Ic concentration
attribute_measured: concentration at 0.75 h (ng/mL)

CO[C@H]1C(=O)[C@]2(C)[C@@H](OC)C[C@H]3OC[C@@]3(OC(C)=O)[C@H]2[C@H](OC(=O)c2ccccc2)[C@]2(O)C[C@H](OC(=O)[C@H](O)[C@@H](NC(=O)OC(C)(C)C)c3ccccc3)C(C)=C1C2(C)C    9090

###

- protocol: in vivo
- Set-up: species or system female C3H/HeN mice
- measurement_conditions: mouse, brain, iv, 40 mg/kg, 40 mg.kg^-1 i.v., 4h after dose, individual animals IV1-IV4, read-out: Brain product Ic concentration
- Experimental: Groups of female C3H/HeN mice received the product by the intravenous route as a bolus at a dose level of 40 mg.kg^-1 equivalent to 120 mg.m^-2. Blood and brain samples were obtained from all dosed animals sacrificed at intervals up to 72 hours post dose. Brain and corresponding plasma samples have been assayed for product Ia content by an LC-MS/MS assay. • Formulation: 2.25 mg.ml^-1 solution containing 5 % Polysorbate 80, 5 % ethanol and 90 % of an aqueous 5 % glucose solution. […]
attribute_measured: concentration at 4 h (ng/g)

CO[C@H]1C(=O)[C@]2(C)[C@@H](OC)C[C@H]3OC[C@@]3(OC(C)=O)[C@H]2[C@H](OC(=O)c2ccccc2)[C@]2(O)C[C@H](OC(=O)[C@H](O)[C@@H](NC(=O)OC(C)(C)C)c3ccccc3)C(C)=C1C2(C)C [product Ia]    7910
